All values here come from ChEMBL document CHEMBL1157588.

Species: Rattus norvegicus
Test: Selectivity index, ratio of Ki for Wistar rat striatum D2-like receptor to Ki for Wistar rat cortex 5HT2A receptor
Measured Ratio Ki, listed per entry for reference.
// keep it numeric: no unit symbol after the value

# example entries with known answers
Fc1ccc(-n2cc(CN3CCN(c4ccccc4)CC3)nn2)cc1 = 0.13
Clc1ccc(N2CCN(Cc3cnn(-c4ccccc4)c3)CC2)cc1 = 4.04
c1ccc(N2CCN(Cc3cn(-c4ccccc4)nn3)CC2)cc1 = 0.13
Fc1ccc(N2CCN(Cc3cnn(-c4ccccc4)c3)CC2)cc1 = 0.48
Fc1ccc(N2CCN(Cc3cn(-c4ccccc4)nn3)CC2)cc1 = 0.6

# context switch: different compound, same Ratio Ki
Please supply the value of reported Ratio Ki for the item Clc1ccc(-n2cc(CN3CCN(c4ccccc4)CC3)nn2)cc1
0.09

* * *

Biological target: UniProt:P19327
Sequence (P19327 whole entry): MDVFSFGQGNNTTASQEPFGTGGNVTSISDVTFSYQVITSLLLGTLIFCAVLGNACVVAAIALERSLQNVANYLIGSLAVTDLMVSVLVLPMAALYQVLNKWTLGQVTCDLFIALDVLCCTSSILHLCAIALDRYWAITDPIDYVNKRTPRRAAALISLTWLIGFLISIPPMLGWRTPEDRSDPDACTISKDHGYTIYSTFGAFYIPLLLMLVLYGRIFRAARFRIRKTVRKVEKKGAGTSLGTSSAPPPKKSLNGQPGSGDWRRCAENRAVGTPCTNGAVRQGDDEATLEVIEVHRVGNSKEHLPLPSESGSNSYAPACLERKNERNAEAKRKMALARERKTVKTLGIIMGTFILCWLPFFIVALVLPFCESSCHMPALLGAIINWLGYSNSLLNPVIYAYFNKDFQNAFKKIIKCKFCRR
pKi: −log10 of the molar value.
Label scheme for pKi: lower than 6 is not fulfilled, 6 and above is fulfilled.

Worked examples, 7 compounds total:
Clc1ccc(-n2cc(CN3CCN(c4ccccc4)CC3)cn2)cc1 = fulfilled
COc1ccc(N2CCN(Cc3cn(-c4ccc(Cl)cc4)nn3)CC2)cc1 = not fulfilled
CC(=O)Nc1ccc(-n2cc(CN3CCN(c4ccccc4)CC3)nn2)cc1 = not fulfilled
Fc1ccc(N2CCN(Cc3cn(-c4ccc(F)cc4)nn3)CC2)cc1 = not fulfilled
Cc1nc2ccccn2c1CN1CCN(c2ccccc2)CC1 = not fulfilled
c1ccc(N2CCN(Cc3cnn(-c4ccccc4)c3)CC2)cc1 = fulfilled
Fc1ccc(-n2cc(CN3CCN(c4ccccc4)CC3)cn2)cc1 = fulfilled

hey, is pKi for this one >= 6? COc1ccc(N2CCN(Cc3cnn(-c4ccc(Cl)cc4)c3)CC2)cc1
not fulfilled

* * *

pKi values, listed per item
Experiment: Displacement of [3H]nemonapride from D2-like receptor in Wistar rat striatum homogenate
Type: tissue-based
Bear in mind: pKi is minus log10 of a mol/L concentration; give just that figure.

O=[N+]([O-])c1ccc(-n2cc(CN3CCN(c4ccccc4)CC3)nn2)cc1 = 5.48
O=C1CCc2ccc(OCCCCN3CCN(c4cccc(Cl)c4Cl)CC3)cc2N1 = 9.00
Clc1ccc(-n2cc(CN3CCN(c4ccccc4)CC3)nn2)cc1 = 6.02
Clc1ccc(N2CCN(Cc3cnn(-c4ccccc4)c3)CC2)cc1 = 5.43
Fc1ccc(N2CCN(Cc3cnn(-c4ccc(F)cc4)c3)CC2)cc1 = 6.32

Now for the molecule whose pKi we want.
Query pKi for Oc1ccc(N2CCN(Cc3cn(-c4ccc(Cl)cc4)nn3)CC2)cc1
5.76
